run_description: qHTS assay to identify small molecule antagonists of the estrogen receptor alpha (ER-alpha) signaling pathway using the BG1 cell line in the presence of 0.1 nM 17-beta-estradiol - cell viability counter screen (AID 1259241); further: nearly all actives have a fitted effect of over 40% in size
conditions_used: VM7Luc4E2 (BG1) viability, CellTiter-Fluor protease, 22 h, 0.1 nM estradiol agonist added; series mostly up to 92.4 µM
Results filed as inconclusive are left out. Active and inactive are the calls of the source. The call rests on the fitted dose curve; in most records, active means well fitted cell-killing curve with a large enough effect in the repeat runs; inconclusive means weak or mixed curves, or effect the other way; inactive means flat fitted curve, though single readings scatter.
Outcome codes: label 1 = active, label 0 = inactive

>  <compound>
O=[N+]([O-])c1ccc(O)cc1C(F)(F)F

>  <cat>
label 1

$$$$
>  <compound>
CCCCCCCC

>  <cat>
label 0

$$$$
>  <compound>
CC(=O)[C@H]1CC[C@H]2[C@@H]3CCC4=CC(=O)CC[C@]4(C)[C@H]3CC[C@]12C

>  <cat>
label 0

$$$$
>  <compound>
O=C1CCc2cc(OCCCCc3nnnn3C3CCCCC3)ccc2N1

>  <cat>
label 0

$$$$
>  <compound>
Cc1c2ccccc2c(C)c2c1ccc1ccccc12

>  <cat>
label 0

$$$$
>  <compound>
CC(C)(C)NSc1nc2ccccc2s1

>  <cat>
label 0

$$$$
>  <compound>
COc1cc(/C=C/c2ccccc2)oc(=O)c1

>  <cat>
label 0

$$$$
>  <compound>
C1CCC(SSC2CCCCC2)CC1

>  <cat>
label 0

$$$$
>  <compound>
CC(C(=O)O)c1ccc2c(c1)[nH]c1ccc(Cl)cc12 (stereo not drawn)

>  <cat>
label 0

$$$$
>  <compound>
CCN(CCN)c1cccc(C)c1

>  <cat>
label 0

$$$$
>  <compound>
C=Cc1ccccc1C=C

>  <cat>
label 0

$$$$
>  <compound>
OC[C@@H](O)[C@@H](O)CO

>  <cat>
label 0

$$$$
>  <compound>
CCOC(=O)NNc1ccc(N(CC)CC(C)O)nn1 (stereo not drawn)

>  <cat>
label 0

$$$$
>  <compound>
CCC(C)n1ncn(-c2ccc(N3CCN(c4ccc(OC[C@H]5CO[C@](Cn6cncn6)(c6ccc(Cl)cc6Cl)O5)cc4)CC3)cc2)c1=O (stereo partly drawn)

>  <cat>
label 0

$$$$
>  <compound>
CCc1ccc(Br)cc1

>  <cat>
label 0

$$$$
>  <compound>
C=CCCC(=O)/C=C/C1C(C)=CCCC1(C)C (stereo not drawn)

>  <cat>
label 0

$$$$
>  <compound>
COC(=O)c1ccccc1OC

>  <cat>
label 0

$$$$
>  <compound>
CN(C)[C@@H](CCOc1cccc2ccccc12)c1ccccc1

>  <cat>
label 0

$$$$

* * *

run_description: qHTS assay to identify small molecule antagonists of the thyroid receptor (TR) signaling pathway (AID 743065); further: nearly all actives have a fitted effect of over 55% in size
conditions_used: GH3.TRE-Luc, T3-stimulated luciferase inhibition, 23.5 h; series mostly up to 70.3 µM
Inconclusive results are not listed. The source made the active and inactive calls. The call rests on the fitted dose curve; in most records, active means well fitted inhibition curve with a large enough effect in the repeat runs; inconclusive means weak or mixed curves; inactive means no such curve, though single readings can be large or run the other way.
Outcome codes: class 1 = active, class 0 = inactive

>  <compound>
COc1ccc(NC(=O)CC(C)=O)cc1

>  <cat>
class 0

$$$$
>  <compound>
[Cl][Pt-2]([Cl])([Cl])[Cl]

>  <cat>
class 0

$$$$
>  <compound>
O=c1[nH]c(=O)n([C@H]2C[C@H](O)[C@@H](CO)O2)cc1F

>  <cat>
class 1

$$$$
>  <compound>
Cc1c(C)c2c(c(C)c1O)CC[C@@](C)(CCC[C@H](C)CCC[C@H](C)CCCC(C)C)O2

>  <cat>
class 0

$$$$
>  <compound>
Cc1ccc(-c2ccccc2)cc1

>  <cat>
class 0

$$$$
>  <compound>
c1ccsc1

>  <cat>
class 0

$$$$
>  <compound>
CCN(CCN)c1cccc(C)c1

>  <cat>
class 0

$$$$
>  <compound>
OC[C@@H](O)[C@@H](O)CO

>  <cat>
class 0

$$$$
>  <compound>
O=C1OC2(c3ccc(O)cc3Oc3cc(O)ccc32)c2ccc(N=C=S)cc21

>  <cat>
class 0

$$$$
>  <compound>
CCCCCCCCCCC[C@@H](C[C@@H]1OC(=O)[C@H]1CCCCCC)OC(=O)[C@H](CC(C)C)NC=O

>  <cat>
class 0

$$$$
>  <compound>
COC(=O)C1=C(C)NC(C)=C(C(=O)OCCN2CCN(C(c3ccccc3)c3ccccc3)CC2)C1c1cccc([N+](=O)[O-])c1 (stereo unspecified)

>  <cat>
class 1

$$$$
